System: mc^26230 pMV261
Assay: microbe, parasite or virus in culture
Type: cell-based
Conditions: Mycobacterium tuberculosis, read-out: MIC, pMV261
One threshold, 0.08 µg/mL, splits the recorded MIC values: lower ones are met, equal or higher ones are not met.

compound	category-label
O=C1N=C(NNC(=O)c2ccncc2)S/C1=C\c1ccc(F)cc1 [9j]	not met
Cc1ccccc1/C=C1\SC(NNC(=O)c2ccncc2)=NC1=O [9d]	not met
O=C1N=C(NNC(=O)c2ccncc2)S/C1=C\c1ccc(Cl)cc1 [9n]	not met
CO[C@H]1/C=C/O[C@@]2(C)Oc3c(C)c(O)c4c(O)c(c(/C=N/N5CCN(C)CC5)c(O)c4c3C2=O)NC(=O)/C(C)=C\C=C\[C@H](C)[C@H](O)[C@@H](C)[C@@H](O)[C@@H](C)[C@H](OC(C)=O)[C@@H]1C [RIF, reference compound]	met
